# assay summary: yeast display, Sf9 membrane polyspecificity reagent, FACS + sequencing; frameworks hold sequencing errors
quantity measured: polyreactivity (PSR sort gate)

[
  {
    "sequence record": "QVQLVESGGGLVQAGGSLRLSCAASGITLLGNTMGWYRQAPGKERELVAAIRTNSGRTYYADSVKGRFTISRDNAKNTVYLQMNSLKPEDTAVYYCAKRYFSYLGREMDYWGQGTQVTVSS",
    "polyreactivity (PSR sort gate)": "high polyreactivity"
  },
  {
    "sequence record": "QVQLVESGGGLVQAGGSLRLSCAASGSIFGYYAMGWYRQAPGKERELVAAITYSGGNTNYADSVKGRFTISRDNAKNTVYLQMNSLKPEDTAVYYCAARKNYQAVYARRTRYYYWGQGTQVTVSS",
    "polyreactivity (PSR sort gate)": "high polyreactivity"
  },
  {
    "sequence record": "QVQLVESGGGLVQAGGSLRLSCAASGRIFGYYVMGWYRQAPGKERELVAAISRSGGSTYYADSVKGRFTISRDNAKNTVYLQMNSLKPEDTAVYYCAKRVCTYGFSGYDYWGQGTQVTVSS",
    "polyreactivity (PSR sort gate)": "high polyreactivity"
  },
  {
    "sequence record": "QVQLVESGGGLVQAGGSLRLSCAASGSIFDSNAMGWYRQAPGKERELVASITSDGDTYYADSVKGRFTISRDNAKNTVYLQMNSLKPEVTAVYYCAAYVPYSGLDYWGQGTQVTVSS",
    "polyreactivity (PSR sort gate)": "low polyreactivity"
  },
  {
    "sequence record": "QVQLVESGGGLVQAGGSLRLSCAASGRTFPYNAMGWYRQAPGKEMELVAVISSSGGSTYYADSVKGRFTISRDNAKNTVYLQMNSLKPEDTAVYYCNTRPYYYRRPGYRYSGYDYWGQGTQVTVSS",
    "polyreactivity (PSR sort gate)": "high polyreactivity"
  }
]

// next item, polyreactivity (PSR sort gate) requested
Query string: Read the entry QVQLVESGGGLVQAGGSLRLSCAASGFTFARNGMGWYRQATVKEREFVAAITRSGGRTYYADSVKGRFTISRDNAKNTVYLQMNSLKPEDTAVYYCAAATSYGKSEYDYWGQGTQVTVSS and write its reported polyreactivity (PSR sort gate).
Result string: high polyreactivity
